biological target: mouse TMEM16A mutant P595A (Mus musculus, UniProt Q8BHY3, P595A); construct: expressed in transfected cells; host or cells: HEK293T; assay: Inside-out patch recording of 1PBC block, mutant P595A; format: cell-based; settings: P595A; V -100 mV
result type: IC50 (µM)
# value in µM; strip the unit string

Query N#Cc1c(C(F)(F)F)cc(O)n2c1nc1ccccc12 [1PBC] yields IC50 of 8.19

====

target: mouse TMEM16A mutant Y598A (Mus musculus, UniProt Q8BHY3, Y598A); construct: expressed in transfected cells; host or cells: HEK293T; test: Inside-out patch recording of 1PBC block, mutant Y598A; assay type: cell-based; conditions: 20 mV; 2 µM Ca2+
result type: IC50 (µM)
# value in µM; strip the unit string

Query N#Cc1c(C(F)(F)F)cc(O)n2c1nc1ccccc12 [1PBC] yields IC50 of 4.35

====

biological target: mouse TMEM16A mutant Y598A (Mus musculus, UniProt Q8BHY3, Y598A); construct: expressed in transfected cells; host or cells: HEK293T; assay: Inside-out patch recording of 1PBC block, mutant Y598A; type: cell-based; conditions: 60 mV; 2 µM Ca2+
result type: IC50 (µM)
# value in µM; strip the unit string

Query N#Cc1c(C(F)(F)F)cc(O)n2c1nc1ccccc12 [1PBC] yields IC50 of 3.16

====

target: mouse TMEM16A mutant I640A (Mus musculus, UniProt Q8BHY3, I640A); construct: expressed in transfected cells; host or cells: HEK293T; assay: Inside-out patch recording of 1PBC block, mutant I640A; format: cell-based; conditions: I640A; V 40 mV
result type: IC50 (µM)
# value in µM; strip the unit string

Reported mouse TMEM16A mutant I640A (Mus musculus, UniProt Q8BHY3, I640A) IC50 for item N#Cc1c(C(F)(F)F)cc(O)n2c1nc1ccccc12 was 24.7

====

biological target: mouse TMEM16A mutant V511A (Mus musculus, UniProt Q8BHY3, V511A); construct: expressed in transfected cells; host or cells: HEK293T; assay: Inside-out patch recording of 1PBC block, mutant V511A; format: cell-based; conditions: 20 mV; 2 µM Ca2+
result type: pIC50
When answering, recall that pIC50 equals minus log10 of the concentration in mol/L, and write that number alone.

Reported mouse TMEM16A mutant V511A (Mus musculus, UniProt Q8BHY3, V511A) pIC50 for item N#Cc1c(C(F)(F)F)cc(O)n2c1nc1ccccc12 [1PBC] was 4.79

====

biological target: mouse TMEM16A mutant T539A (Mus musculus, UniProt Q8BHY3, T539A); construct: expressed in transfected cells; host or cells: HEK293T; test: Inside-out patch recording of 1PBC block, mutant T539A; type: cell-based; conditions: T539A; V 100 mV
result type: IC50 (µM)
# value in µM; strip the unit string

Reported mouse TMEM16A mutant T539A (Mus musculus, UniProt Q8BHY3, T539A) IC50 for item N#Cc1c(C(F)(F)F)cc(O)n2c1nc1ccccc12 was 8.74

====

Target: mouse TMEM16A mutant I636A (Mus musculus, UniProt Q8BHY3, I636A)
Construct: expressed in transfected cells; host or cells: HEK293T
Test: Inside-out patch recording of 1PBC block, mutant I636A
Format: cell-based
Settings: I636A; V 60 mV
Experimental: HEK293T cells (ATCC CRL-1573) were maintained in Dulbecco’s modified Eagle’s medium (DMEM; Sigma-Aldrich) supplemented with 10 U ml^−1 penicillin, 0.1 mg ml^−1 streptomycin (Sigma-Aldrich), 2 mM L-glutamine (Sigma-Aldrich), and 10% FBS (Sigma-Aldrich) in a humidified atmosphere containing 5% CO2 at 37 °C. […]
result type: IC50 (µM)
# value in µM; strip the unit string

Query N#Cc1c(C(F)(F)F)cc(O)n2c1nc1ccccc12 [1PBC] yields IC50 of 4.03

====

Molecular target: mouse TMEM16A mutant Y514A (Mus musculus, UniProt Q8BHY3, Y514A)
Construct: expressed in transfected cells; host or cells: HEK293T
Sequence (Q8BHY3 1-960 Y514A): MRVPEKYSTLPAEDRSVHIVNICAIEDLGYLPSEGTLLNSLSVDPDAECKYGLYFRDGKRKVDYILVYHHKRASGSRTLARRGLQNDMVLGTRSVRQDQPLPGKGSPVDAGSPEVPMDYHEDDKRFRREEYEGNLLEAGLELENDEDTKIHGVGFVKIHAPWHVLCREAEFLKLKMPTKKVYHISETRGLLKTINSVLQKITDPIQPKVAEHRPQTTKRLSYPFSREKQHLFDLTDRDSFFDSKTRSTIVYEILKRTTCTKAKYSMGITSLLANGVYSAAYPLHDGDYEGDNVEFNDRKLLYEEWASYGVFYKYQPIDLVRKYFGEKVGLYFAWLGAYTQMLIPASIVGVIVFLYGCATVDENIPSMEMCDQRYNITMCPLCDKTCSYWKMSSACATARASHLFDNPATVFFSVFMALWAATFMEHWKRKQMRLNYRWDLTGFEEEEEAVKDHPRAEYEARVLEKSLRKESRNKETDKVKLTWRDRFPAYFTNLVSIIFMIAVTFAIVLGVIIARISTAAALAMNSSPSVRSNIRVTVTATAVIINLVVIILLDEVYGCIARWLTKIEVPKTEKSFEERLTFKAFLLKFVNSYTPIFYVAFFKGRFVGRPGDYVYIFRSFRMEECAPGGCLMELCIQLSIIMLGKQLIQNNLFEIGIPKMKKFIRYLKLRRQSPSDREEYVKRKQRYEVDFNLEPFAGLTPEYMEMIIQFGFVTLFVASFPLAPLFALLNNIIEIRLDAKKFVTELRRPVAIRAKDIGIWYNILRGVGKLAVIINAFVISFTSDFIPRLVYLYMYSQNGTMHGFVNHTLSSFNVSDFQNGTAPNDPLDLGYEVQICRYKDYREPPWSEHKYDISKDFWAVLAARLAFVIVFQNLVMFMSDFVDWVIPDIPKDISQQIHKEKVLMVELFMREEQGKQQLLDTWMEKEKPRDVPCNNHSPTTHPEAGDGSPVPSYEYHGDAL
Test: Inside-out patch recording of 1PBC block, mutant Y514A
Type: cell-based
Conditions: Y514A; V -120 mV
result type: pIC50
When answering, recall that pIC50 equals minus log10 of the concentration in mol/L, and write that number alone.

Query N#Cc1c(C(F)(F)F)cc(O)n2c1nc1ccccc12 [1PBC] yields pIC50 of 4.16

====

Biological target: mouse TMEM16A mutant Y598A (Mus musculus, UniProt Q8BHY3, Y598A)
Construct: expressed in transfected cells; host or cells: HEK293T
Sequence (Q8BHY3 1-960 Y598A): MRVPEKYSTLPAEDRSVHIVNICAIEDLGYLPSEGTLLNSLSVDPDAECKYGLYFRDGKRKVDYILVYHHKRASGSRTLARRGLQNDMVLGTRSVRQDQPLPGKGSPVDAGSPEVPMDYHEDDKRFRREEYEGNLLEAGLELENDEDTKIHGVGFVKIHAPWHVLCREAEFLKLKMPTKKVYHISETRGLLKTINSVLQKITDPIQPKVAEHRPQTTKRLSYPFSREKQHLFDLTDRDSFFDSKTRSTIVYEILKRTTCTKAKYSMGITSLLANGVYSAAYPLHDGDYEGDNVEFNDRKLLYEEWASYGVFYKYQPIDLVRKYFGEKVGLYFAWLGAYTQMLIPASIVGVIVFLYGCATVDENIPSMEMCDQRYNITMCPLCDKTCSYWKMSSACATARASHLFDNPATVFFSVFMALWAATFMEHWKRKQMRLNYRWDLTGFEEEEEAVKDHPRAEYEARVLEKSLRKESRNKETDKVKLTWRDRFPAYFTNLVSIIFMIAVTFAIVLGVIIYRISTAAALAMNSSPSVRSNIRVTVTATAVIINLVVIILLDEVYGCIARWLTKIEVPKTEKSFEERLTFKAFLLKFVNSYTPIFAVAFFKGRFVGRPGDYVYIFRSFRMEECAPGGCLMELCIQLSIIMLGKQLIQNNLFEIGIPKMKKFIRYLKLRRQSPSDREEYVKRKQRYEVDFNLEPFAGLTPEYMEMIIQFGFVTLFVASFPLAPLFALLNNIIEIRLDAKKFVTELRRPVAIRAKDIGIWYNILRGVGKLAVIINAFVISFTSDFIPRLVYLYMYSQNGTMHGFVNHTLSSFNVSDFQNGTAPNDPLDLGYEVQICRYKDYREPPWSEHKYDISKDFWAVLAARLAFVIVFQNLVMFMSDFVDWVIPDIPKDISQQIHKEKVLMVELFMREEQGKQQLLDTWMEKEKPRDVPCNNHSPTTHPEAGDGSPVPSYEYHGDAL
Assay: Inside-out patch recording of 1PBC block, mutant Y598A
Assay type: cell-based
Settings: Y598A; V 40 mV
result type: pIC50
When answering, recall that pIC50 equals minus log10 of the concentration in mol/L, and write that number alone.

Query N#Cc1c(C(F)(F)F)cc(O)n2c1nc1ccccc12 yields pIC50 of 5.45

Data credit: paper PMC9120017
